// data source = paper PMC5540273

Would you mind telling me the reported %Inh of each entry?
- Test system: MTOR
- SETTINGS: concentration: 1 μM, replicates: in singlicate; n = 1;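 also: KINOMEscan kinase panel screen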
Give bare numbers, in %.

Example cases with answers are listed next.
COc1cccc(-c2cc(-c3c[nH]nc3-c3ccccn3)ccn2)c1: 33
Cc1ccccc1-n1cnc2c(N)ncnc21: 0
O=C(Nc1n[nH]c2nc(-c3nccs3)c(Br)cc12)C1CC1: 16

Now let's try a different one.
Please report the measured %Inh for COc1ccc(CNC(=O)NC2CCN(c3ccnc(Nc4cc(OC)c(OC)c(OC)c4)n3)C2)cc1 (stereo not shown)
14

----------
- Test system: CDKL1
- SETTINGS: concentration: 1 μM, replicates: in singlicate; n = 1
Would you mind telling me the reported %Inh of each entry?
Please provide the amount together with its unit, number first.

Cc1ccccc1-n1cnc2c(N)ncnc21: 14%

Working through the 5 compounds below one at a time, give %Inh for each.
1. CS(=O)(=O)c1ccc(-c2nc3n(c2-c2ccncc2)CCC3)cc1
2. COC(=O)c1c(-c2ccccc2)c2cc(OC)ccc2c(=O)n1Cc1ccccc1
3. NC(=O)c1nnc2ccccc2c1N
4. Cc1cccc(-c2cc(Nc3ccncc3)c3ccccc3n2)n1
5. Cc1c(Cn2ccn3c(=O)cc(N4CCOCC4)nc23)cccc1C(F)(F)F

["28%", "3%", "44%", "0%", "3%"]

Working through the 3 compounds below one at a time, give %Inh for each.
1. CC(C)(C)c1ccc(C(=O)Nc2cn3cc(-c4cccnc4)ccc3n2)cc1
2. Cc1cccc(-c2nc(-c3ccc(S(C)(=O)=O)cc3)sc2-c2ccnc(NCCc3ccccc3)c2)c1
3. COc1cc2ncn(-c3cc(OCC4CCCO4)c(C(N)=O)s3)c2cc1OC (stereo not drawn)

1. 39%
2. 14%
3. 11%
